# tested_on: UniProt:P19327
# Sequence (P19327 1-422): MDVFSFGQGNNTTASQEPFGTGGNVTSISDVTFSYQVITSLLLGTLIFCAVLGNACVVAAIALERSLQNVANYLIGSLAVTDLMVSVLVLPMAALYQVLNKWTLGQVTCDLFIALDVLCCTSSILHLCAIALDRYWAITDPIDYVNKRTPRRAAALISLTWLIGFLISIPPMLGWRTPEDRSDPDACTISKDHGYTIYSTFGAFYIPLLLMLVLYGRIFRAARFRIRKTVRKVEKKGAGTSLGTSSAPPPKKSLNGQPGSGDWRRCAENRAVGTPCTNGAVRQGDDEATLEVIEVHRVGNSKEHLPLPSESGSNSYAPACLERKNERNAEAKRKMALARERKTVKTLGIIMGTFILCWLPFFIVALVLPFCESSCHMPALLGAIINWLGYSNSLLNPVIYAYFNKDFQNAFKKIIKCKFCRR
quantity_name: IC50 (nM)

Guide cases for IC50, answers given:
[[record]]
line_notation = "CCCN(CCC)[C@H]1Cc2c[nH]c3ccc(-c4nnco4)c(c23)C1"
quantity_name = "IC50"
val = 0.75

[[record]]
line_notation = "CCCN(CCC)[C@H]1Cc2c[nH]c3ccc(-c4nnc(-c5ccccc5)o4)c(c23)C1"
quantity_name = "IC50"
val = 19


[I] CCCN(CCC)[C@H]1Cc2c[nH]c3ccc(-c4cccnc4)c(c23)C1
[II] CCCN(CCC)[C@H]1Cc2c[nH]c3ccc(-c4ccno4)c(c23)C1
Q: // compare measured IC50, left I , right II , return larger Write down the label of the entry you select.
Result: I
(I: 0.87 nM, II: 0.1 nM)

* * *

Entries with reported IC50 on 5-HT1D receptor (Bos taurus)
Sequence (F1MGM3 1-403): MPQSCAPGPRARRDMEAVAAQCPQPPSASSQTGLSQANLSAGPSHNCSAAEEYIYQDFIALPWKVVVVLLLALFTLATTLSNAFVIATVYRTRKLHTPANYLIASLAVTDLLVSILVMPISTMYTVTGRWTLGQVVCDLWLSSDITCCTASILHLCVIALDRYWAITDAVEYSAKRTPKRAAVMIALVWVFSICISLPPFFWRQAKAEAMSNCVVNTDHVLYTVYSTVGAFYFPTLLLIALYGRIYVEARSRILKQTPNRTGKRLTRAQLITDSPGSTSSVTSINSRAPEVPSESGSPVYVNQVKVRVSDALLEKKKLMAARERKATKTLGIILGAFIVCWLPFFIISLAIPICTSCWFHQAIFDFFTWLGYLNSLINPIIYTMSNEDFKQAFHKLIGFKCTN
quantity_name: IC50 (µM)

[P] CCCN(CCC)[C@H]1Cc2c[nH]c3ccc(-c4ccno4)c(c23)C1
[Q] CCCN(CCC)[C@H]1Cc2c[nH]c3ccc(-c4cnco4)c(c23)C1
Q: Please indicate which item has the smaller measured IC50: P versus Q Write the label of whichever entry you select.
Result: P
(P: 0.0464 µM, Q: 0.0744 µM)
